# System: ACHN
# assay_remarks: NCI tumour cell line growth inhibition, 48 h
The source made the active and inactive calls. Cut-off read from the data, not from the text of the source: active = GI50 up to about 1.1 µM and inactive = higher.
Pick from y for active, n for inactive when you respond.

Please share the test call associated with O=[N+]([O-])CC(SCc1ccccc1)c1ccc2c(c1)OCO2 (stereo unspecified) .
n

Please share the test call associated with c1ccc(CN2CCC(=NN3CCCCC3)CC2)cc1 .
n

Please share the test call associated with Clc1ccc(/C=C/c2nc(-c3ccccc3)cn3c2nc2ccccc23)cc1Cl .
n

Please share the test call associated with CCOC(=O)N(NC(=O)NC(C)C)c1ccccc1 .
n

Please share the test call associated with COc1ccc(NC(=O)CC(=O)N2N=C(N(CCC#N)c3cccc(C)c3)CC2c2ccccc2)cc1 (stereo unspecified) .
n

Please share the test call associated with CCCC(=O)CC(C)C(=O)C(=O)NC12CC3CC(CC(C3)C1)C2 (stereo unspecified) .
n

Please share the test call associated with CCOC(=O)c1cc2c(C(=O)c3ccc([N+](=O)[O-])cc3)c(C(C)=O)ccc2[nH]1 .
n

Please share the test call associated with O=C(O[C@H]1[C@@H]2C=CO[C@@H](OC3OC(CO)C(O)C(O)C3O)[C@@H]2[C@@]2(CO)O[C@@H]12)c1ccc(O)c(O)c1 (stereo partly specified) .
n

Please share the test call associated with C1CSCCSCCCS[C@@H]2CCCCC2SC1 (stereo partly specified) .
n

Please share the test call associated with COc1cc(C(=O)CC2OC(=O)C(Cl)=C2Cl)ccc1Cl (stereo unspecified) .
n

Please share the test call associated with COc1ccc(C[C@H]2COC(=O)[C@@H]2Cc2cccc(Br)c2)cc1OC .
n

Please share the test call associated with C[C@@H]1C(=O)O[C@@H]2C[C@@]1(C)[C@@H]1C(=O)C3(O)OC14C2(C)OC(=O)[C@@]4(O)CCC1C3C(O)C=C2CC=CC(=O)[C@@]21C (stereo partly specified) .
n

Please share the test call associated with COc1ccccc1CC1(O)OC(=O)c2ccccc21 (stereo unspecified) .
n

Please share the test call associated with O=C1c2cn[nH]c2N=C(Nc2ccccc2)C1/N=C/c1ccc([N+](=O)[O-])cc1 (stereo unspecified) .
n

Please share the test call associated with Cc1ccc2[nH]c(=O)c(-c3cnc(O)nn3)c(O)c2c1 .
n

Please share the test call associated with CC(C)=CCC/C(C)=C/CC/C(C)=C/C(O)c1ccccc1 (stereo unspecified) .
n

Please share the test call associated with NC(CP(=O)(O)O)C(=O)O (stereo unspecified) .
n

Please share the test call associated with O=C1CCCC/C1=C/C=C/c1ccccc1 .
n

Please share the test call associated with C=C1C(=O)O[C@@H]2/C=C(/C)[C@@H](OC(C)=O)C/C=C(\C)C(O)[C@@H](OC(=O)/C(C)=C\C)C12 (stereo partly specified) .
n

Please share the test call associated with Cc1cc(C)c2c(O)cc(-c3cccc4ccccc34)nc2n1 .
y

Please share the test call associated with COc1ccc2[nH]c3c(c2c1)CC(=O)N1CCCC(CC3O)C1 (stereo unspecified) .
n

----------
# Test system: NCI/ADR-RES
# assay_remarks: NCI tumour cell line growth inhibition, 48 h
Active and inactive are the calls of the source. Cut-off read from the data, not from the text of the source: active = GI50 up to about 1.1 µM and inactive = higher.
property_name: GI50

Name the recorded GI50 of the item O=[N+]([O-])C(/C=C(\Cl)[N+](=O)[O-])=C(N1CCCCC1)N1CCCCC1 in your answer.
26.9 µM (inactive)

Name the recorded GI50 of the item COc1ccc(C2CC(c3c(C)nn(-c4ccccc4)c3-c3ccc(C)cc3O)=NN2c2ccccc2)cc1 (stereo unspecified) in your answer.
21.9 µM (inactive)

Name the recorded GI50 of the item COc1cc(/C=C/C=C2\CCC/C(=C\C=C\c3ccc(O)c(OC)c3)C2=O)ccc1O in your answer.
12.2 µM (inactive)

Name the recorded GI50 of the item Cc1cc2c(cc1Cl)SSc1cc(Cl)c(C)cc1S(=O)(=O)Nc1nc(N)nn1C(O)n1nc(N)nc1NS2(=O)=O in your answer.
> 10 µM (inactive)

Name the recorded GI50 of the item Cc1nnc(-n2c(O)cc(=O)n(-c3ccccc3)c2=S)nc1/C=C/c1ccc(N(C)C)cc1 in your answer.
14.3 µM (inactive)

Name the recorded GI50 of the item O=C(Nc1ccccn1)c1cc2c(cc1Cl)Sc1nccn1S2(=O)=O in your answer.
31 µM (inactive)

Source: ChEMBL document CHEMBL1201862
